biological target: Tubulin; experiment: Inhibition of tubulin polymerization; format: functional, Homo sapiens
Could you mark each record t if its IC50 falls strictly under 1 µM, and f if it equals or exceeds it?

## Input Does the reported IC50 of COc1ccc(-c2cc(N)c(C(=O)c3cc(OC)c(OC)c(OC)c3)s2)cc1OC stay below 1 µM?
## Output f

## Input Does the reported IC50 of COc1cccc(-c2cc(N)c(C(=O)c3cc(OC)c(OC)c(OC)c3)s2)c1 stay below 1 µM?
## Output t

## Input Does the reported IC50 of COc1cc(C(=O)c2cc(-c3ccccc3)sc2N)cc(OC)c1OC stay below 1 µM?
## Output f

## Input Does the reported IC50 of COc1ccc(-c2cc(N)c(C(=O)c3cc(OC)c(OC)c(OC)c3)s2)cc1 stay below 1 µM?
## Output f

## Input Does the reported IC50 of COc1cc(C(=O)c2cc(-c3ccc(C)cc3)sc2N)cc(OC)c1OC stay below 1 µM?
## Output t

## Input Does the reported IC50 of COc1cc(C(=O)c2sc(-c3ccc(F)cc3)cc2N)cc(OC)c1OC stay below 1 µM?
## Output f

## Input Does the reported IC50 of COc1cc(C(=O)c2sc(-c3ccccc3Cl)cc2N)cc(OC)c1OC stay below 1 µM?
## Output f

## Input Does the reported IC50 of COc1ccc(-c2cc(C(=O)c3cc(OC)c(OC)c(OC)c3)c(N)s2)cc1 stay below 1 µM?
## Output f

## Input Does the reported IC50 of COc1cc(C(=O)c2sc(-c3cccs3)cc2N)cc(OC)c1OC stay below 1 µM?
## Output f

## Input Does the reported IC50 of COc1cc(C(=O)c2sc(-c3cccc([N+](=O)[O-])c3)cc2N)cc(OC)c1OC stay below 1 µM?
## Output t

## Input Does the reported IC50 of COc1cc(C(=O)c2cc(-c3ccc(F)cc3)sc2N)cc(OC)c1OC stay below 1 µM?
## Output t
